Test system: MCF7
Test: cells
Settings: Homo sapiens, MCF7, 72 h
Description: Cytotoxicity against human MCF7 cells assessed as reduction in cell viability after 72 hrs by MTT assay
Field: IC50. Provide a value for each of the compounds that follow.

Known results for compounds:
CC(=O)C(=O)N[C@@H]1/C=C(C)/C=C/[C@@H](O)C/C=C(C)/C=C/[C@@H](O)C/C=C(\C)C(=O)[C@@H]1C: > 100 µM
CC1=C\C[C@H](O)/C=C/C(C)=C/[C@@H](NC(=O)[C@H](C)O)[C@H](C)C(=O)/C(C)=C/C[C@H](O)\C=C\1: > 100 µM

Below are some compounds; for each one, tell me its IC50.
1. CC(=O)C(=O)N[C@@H]1/C=C(C)/C=C/[C@@H](O)C/C=C(C)/C=C/[C@@H](O)C/C=C(\C)C(=O)[C@H]1C
2. CC(=O)O[C@H]1C(=O)[C@@]2(C)[C@H]([C@H](OC(=O)c3ccccc3)[C@]3(O)C[C@H](OC(=O)[C@H](O)[C@@H](NC(=O)c4ccccc4)c4ccccc4)C(C)=C1C3(C)C)[C@]1(OC(C)=O)CO[C@@H]1C[C@@H]2O
3. CC(=O)C(=O)N[C@@H]1/C=C(C)/C=C\[C@@H](O)C/C=C(C)/C=C/[C@@H](O)C[C@H]2OC(=O)[C@]1(C)C(=O)[C@@H]2C

Response:
> 100 µM
> 0.0811 µM
> 100 µM
